Listed here: items and their measured mortality at 0.05 ppm.
Test system: Brown Planthopper (Nilaparvata lugens)
method_summary: Test (foliar dipping) for controlling brown planthopper
Format: in vivo
run_conditions: 120 h, 0.05 ppm, rice seedlings dipped, 5 days after treatment

[
  {
    "compound": "CCOc1cccc(-c2c([O-])[n+](CCC#N)c3ccccn3c2=O)c1 [Compound 21]",
    "mortality at 0.05 ppm / %": 80
  },
  {
    "compound": "COc1cccc(-c2c([O-])[n+](CCC#N)c3ccccn3c2=O)c1 [Compound 18]",
    "mortality at 0.05 ppm / %": 100
  },
  {
    "compound": "N#CCC[n+]1c(O)c(-c2cccc(C(F)F)c2)c(=O)n2ccccc21 [Compound 48]",
    "mortality at 0.05 ppm / %": 100
  },
  {
    "compound": "Cc1cccc(-c2c([O-])[n+](CCC#N)c3ccccn3c2=O)c1 [Compound 3]",
    "mortality at 0.05 ppm / %": 80
  }
]
